Answer each item with its documented activity at 2 µg/mL.
- System: P. falciparum 3D7 parasites
- test: P. falciparum growth inhibition assay, 2-cycle (120 h treatment), delayed-death screen and dose-response
- Format: cell-based, Plasmodium falciparum
- setup.conditions: Plasmodium falciparum, 3D7; P. falciparum, 120 h, screen at 2 μg/mL, replicate 2; read-out: Pf_120h_%Growth_Rep2
Answer with the figure and its unit, nothing else.

Here is how some compounds turned out for activity at 2 µg/mL.
compound	tested.system	measured.endpoint	test.result
CC[C@H]1OC(=O)[C@H](C)[C@@H](O[C@H]2C[C@@](C)(OC)[C@@H](O)[C@H](C)O2)[C@H](C)[C@@H](O[C@@H]2O[C@H](C)C[C@H](N(C)C)[C@H]2O)[C@](C)(OC)C[C@@H](C)C(=O)[C@H](C)[C@@H](O)[C@]1(C)O [Clarithromycin]	P. falciparum 3D7 parasites	activity at 2 µg/mL	16.9%
C=C[C@]1(C)C[C@@H](OC(=O)CSCCN(CC)CC)[C@]2(C)[C@H](C)CC[C@]3(CCC(=O)[C@H]32)[C@@H](C)[C@@H]1O [Tiamulin, reference compound]	P. falciparum 3D7 parasites	activity at 2 µg/mL	8.86%

--- query ---
Query block: State the recorded activity at 2 µg/mL for this entry: O=c1[nH]c2ccccc2c(-c2ccccc2)c1O [Viridicatin]
Result block: 104%
